System: CAMK2G
CONDITION DESCRIPTION: concentration: 1 μM, replicates: in singlicate; n = 1;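 also: KINOMEscan kinase panel screen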
Provide the recorded %Inh for the entries that follow.
# answer = value followed by unit

Look up %Inh: `COCCOCCOc1cc2ncc3c4ccc(C#N)cc4[nH]c3c2cc1OC`
72%

Look up %Inh: `c1ccc(-c2cnc3nccnn23)cc1`
0%

Look up %Inh: `O=C(Nc1n[nH]c2cc(-c3ccoc3)ccc12)C1CC1`
25%

Look up %Inh: `FC(F)(F)c1ccc(/C=C/c2cncnc2Nc2ccc3[nH]c(Cc4ccccc4)nc3c2)cc1`
8%

Look up %Inh: `O=C(Nc1cccc(Oc2ccc3nc(NC(=O)C4CC4)cn3n2)c1)c1ccccc1C(F)(F)F`
0%

----------
Test system: ANKK1
CONDITION DESCRIPTION: concentration: 1 μM, replicates: in singlicate; n = 1
Provide the recorded %Inh for the entries that follow.
Respond numerically; units are % and should not be typed.

Look up %Inh: `CC(=O)Nc1nc2cnc(Nc3cc(NC(=O)c4cccc(C5(C#N)CC5)c4Cl)ccc3C)nc2s1`
0

Look up %Inh: `COc1cc(Nc2ncc3c(C)nc(-c4cc5ccccc5[nH]4)n3n2)cc(OC)c1OC`
0

Look up %Inh: `Cl.c1ccc(-c2ccc3c(Nc4ccc5[nH]ncc5c4)ccnc3c2)nc1`
14

Look up %Inh: `FC(F)(F)c1ccc(/C=C/c2cncnc2Nc2ccc3[nH]c(Cc4ccccc4)nc3c2)cc1`
0

----------
Provide the recorded %Inh for the entries that follow.
Tested on: ADCK3
Construct: gene CABC1
CONDITION DESCRIPTION: concentration: 1 μM, replicates: in singlicate; n = 1
Respond numerically; units are % and should not be typed.

Look up %Inh: CCS(=O)(=O)c1ccc(OC)c(Nc2nccc(-c3c(-c4cccc(NC(=O)c5c(F)cccc5F)c4)nn4ncccc34)n2)c1 [GSK326180]
0

Look up %Inh: COc1ccc(Nc2nccc(NCCNC(=O)c3cc4ccccc4s3)n2)cc1 [GSK1379896]
10

Look up %Inh: Nc1n[nH]c2cnc(-c3ccccc3)cc12 [SB-642124]
19

Look up %Inh: CN(C)Cc1ccc(-c2ccc3c(Nc4ccc(Oc5ccccn5)cc4)ccnc3c2)o1 [GW567148]
0

Look up %Inh: COc1cccc(C2=C(Nc3ccc(Cl)c(C(=O)O)c3)C(=O)NC2=O)c1 [SB-390769]
0

Look up %Inh: Oc1cc(Nc2ccnc3cc(I)ccc23)ccc1F [GW552771]
19

Look up %Inh: Cl.c1ccc(-c2ccc3c(Nc4ccc5[nH]ncc5c4)ccnc3c2)nc1 [GW440137]
3

Look up %Inh: `COc1cc2c(cc1OCCN1CCNCC1)ncc1c3ccc(C#N)cc3[nH]c21`
13

----------
Provide the recorded %Inh for the entries that follow.
Test system: GRK1
CONDITION DESCRIPTION: concentration: 1 μM, replicates: in singlicate; n = 1
Respond numerically; units are % and should not be typed.

Look up %Inh: `Cn1cc(-c2ccc3c(c2)CCN3C(=O)Cc2cccc(F)c2)c2c(N)ncnc21`
0

Look up %Inh: `CCn1c(-c2nonc2N)nc2c(C#CC(C)(C)O)nc(OC[C@H](N)c3ccccc3)cc21`
14

Look up %Inh: `CC(C)c1nc(-c2cccc(NS(=O)(=O)c3c(F)cccc3F)c2F)c(-c2ccnc(Nc3ccc(N4CCOCC4)nc3)n2)s1`
100

Look up %Inh: Cl.Cl.NCC(C(=O)Nc1cc(Br)c(-c2ccnc3[nH]ccc23)s1)c1ccccc1 (centres unmarked)
56

Look up %Inh: `CCc1ccc(-c2ccc3c(c2)-c2c(cnn2C)S(=O)(=O)N3C)cc1`
11

Look up %Inh: `Cc1ccc(C(=O)N2CC[C@@H](O)C2)cc1-n1c(C)cc(OCc2ccc(F)cc2F)c(Br)c1=O`
16

Look up %Inh: `Cc1cccc(NC(=O)Nc2ccc(Oc3ncnc4ccn(C)c34)cc2)c1`
4

Look up %Inh: `Cc1cccc(Nc2nc(N[C@H]3CCNC3)ncc2C(N)=O)c1.Cl`
0

----------
Provide the recorded %Inh for the entries that follow.
Test system: IKK-epsilon
Construct: gene IKBKE
CONDITION DESCRIPTION: concentration: 1 μM, replicates: in singlicate; n = 1
Respond numerically; units are % and should not be typed.

Query the reported %Inh for IKK-epsilon; item: CN1CCN(CCCNc2nccc(-c3c(-c4ccc(F)cc4)nn4cc(C(F)(F)F)ccc34)n2)CC1 [GW621581]
0

Query the reported %Inh for IKK-epsilon; item: O=C(Nc1cccc(-c2nn3ccccc3c2-c2ccnc(Nc3cccc(F)c3)n2)c1)c1c(F)ccc(F)c1Cl [GSK357952]
65

Query the reported %Inh for IKK-epsilon; item: `COc1cc2c(cc1OCCN1CCNCC1)ncc1c3ccc(C#N)cc3[nH]c21`
61

Query the reported %Inh for IKK-epsilon; item: O=C(Nc1n[nH]c2cc(-c3ccoc3)ccc12)C1CC1 [SB-738481]
0

----------
Provide the recorded %Inh for the entries that follow.
Tested on: GRK4
CONDITION DESCRIPTION: concentration: 1 μM, replicates: in singlicate; n = 1
Respond numerically; units are % and should not be typed.

Look up %Inh: COc1ccc(Nc2nccc(N3CCC(NC(=O)Nc4cccc(OC)c4)C3)n2)cc1 (stereo not shown)
0

Look up %Inh: `CCn1c(-c2nonc2N)nc2c(C#CC(C)(C)O)ncc(OCCCCN)c21.O=C(O)C(F)(F)F.O=C(O)C(F)(F)F`
21

Look up %Inh: `Cc1ccc(F)c(C(=O)Nc2cccc(-c3nn4ccccc4c3-c3ccnc(Nc4cccc(F)c4)n3)c2)c1F`
25

Look up %Inh: `COc1cccc(-c2ccc3c(NC(=O)C4CC4)n[nH]c3n2)c1`
0

Look up %Inh: `O=C(Nc1cccc(-c2nn3ccccc3c2-c2ccnc(Nc3cccc(C(F)(F)F)c3)n2)c1)c1c(F)cccc1F`
15

Look up %Inh: `COc1cc(Nc2nccc(-c3c(-c4cccc(NC(=O)c5c(F)cccc5F)c4)nn4ncccc34)n2)cc(OC)c1OC`
0

Look up %Inh: `Nc1n[nH]c2cnc(-c3ccccc3)cc12`
10

----------
Provide the recorded %Inh for the entries that follow.
System: NEK2
CONDITION DESCRIPTION: concentration: 1 μM, replicates: in singlicate; n = 1
Respond numerically; units are % and should not be typed.

Look up %Inh: COc1cc(Nc2nccc(N3CCC(NC(=O)c4cc5ccccc5s4)C3)n2)cc(OC)c1OC (centres unmarked)
26

Look up %Inh: `COc1cccc(C(=O)Nc2cccc(Oc3ccc4nc(NC(=O)C5CC5)cn4n3)c2)c1`
8

Look up %Inh: `CSc1cccc2c(-c3ccncn3)c(-c3ccc(F)cc3)nn12`
0

Look up %Inh: `CN1CCN(CCCNc2nccc(-c3c(-c4ccc(F)cc4)nn4cc(C(F)(F)F)ccc34)n2)CC1`
14

Look up %Inh: `O=C(Nc1n[nH]c2cc(-c3ccoc3)ccc12)C1CC1`
8

----------
Tested on: GSK3B
CONDITION DESCRIPTION: concentration: 1 μM, replicates: in singlicate; n = 1
ENDPOINT NAME: %Inh (%)
Respond numerically; units are % and should not be typed.

Look up %Inh: `CSc1cccc2c(-c3ccncn3)c(-c3ccc(F)cc3)nn12`
9

Look up %Inh: `Clc1ccc(-c2nn3ncccc3c2-c2ccnc(Nc3ccc4c(c3)OCCO4)n2)cc1`
0

Look up %Inh: `Cn1cc(-c2ccc3c(c2)CCN3C(=O)Cc2cccc(Cl)c2)c2c(N)ncnc21`
3

Look up %Inh: `O=C(Nc1cccc(-c2nn3ncccc3c2-c2ccnc(Nc3ccccc3)n2)c1)c1c(F)cccc1F`
14

Look up %Inh: COc1cc(Nc2nccc(N3CCC(NC(=O)c4cc5ccccc5s4)C3)n2)cc(OC)c1OC (centres unmarked)
4

Look up %Inh: `CC(=O)Nc1nc2cnc(Nc3cc(NC(=O)c4cccc(C5(C#N)CC5)c4Cl)ccc3C)nc2s1`
0

Look up %Inh: `COc1cc2c(cc1OCCN1CCNCC1)ncc1c3ccc(C#N)cc3[nH]c21`
26

Look up %Inh: `Cl.c1ccc(-c2ccc3c(Nc4ccc5[nH]ccc5c4)ccnc3c2)nc1`
0

Look up %Inh: `Nc1ncnc2c1nc(-c1ccccc1)n2-c1ccccc1`
40

Look up %Inh: `Cn1cc(-c2[nH]c3cc(NC(=O)[C@H](N)C4CCCCC4)cc4c3c2C=NNC4=O)cn1`
2

Look up %Inh: `CCc1ccc(-c2ccc3c(c2)-c2c(cnn2C)S(=O)(=O)N3C)cc1`
13

Look up %Inh: `Cc1cccc(NC(=O)Nc2ccc(Oc3ncnc4ccn(C)c34)cc2)c1`
0

Look up %Inh: `O=C(O)C(F)(F)F.O=C(O)C(F)(F)F.O=c1[nH]ccc2nc(N[C@@H]3CCCNC3)nc(Nc3ccc(S(=O)(=O)N4CCOCC4)cc3)c12`
98.2

Look up %Inh: `CN1CCN(CCCNc2nccc(-c3c(-c4ccc(F)cc4)nn4cc(C(F)(F)F)ccc34)n2)CC1`
3

Look up %Inh: `Fc1ccc(-c2ncn(C3CCNCC3)c2-c2ccnc(Oc3ccc(-c4ccccc4)cc3)n2)cc1`
27

Look up %Inh: `FC(F)(F)c1ccc(/C=C/c2cncnc2Nc2ccc3[nH]c(Cc4ccccc4)nc3c2)cc1`
0

Look up %Inh: `Cc1ccc(C(=O)Nc2ccc(Nc3ccnc4cc(-c5nccs5)ccc34)cc2O)cc1.Cl`
7

Look up %Inh: `CNC(=O)c1ccccc1Nc1nc(Nc2ccc(N3CCOCC3)cc2)ncc1Cl.Cl`
72

Look up %Inh: COc1cc(Nc2nccc(N3CCC(NC(=O)Nc4cccc(C(C)=O)c4)C3)n2)cc(OC)c1OC (centres unmarked)
1

Look up %Inh: `COc1cc(Nc2nccc(-c3c(-c4cccc(NC(=O)c5c(F)cccc5F)c4)nn4ccccc34)n2)cc(OC)c1OC`
23

Look up %Inh: `Cc1ccc(F)c(C(=O)Nc2cccc(-c3nn4ccccc4c3-c3ccnc(Nc4cccc(F)c4)n3)c2)c1F`
21

Look up %Inh: `Cc1cccc(Nc2nc(N[C@H]3CCNC3)ncc2C(N)=O)c1.Cl`
0

Look up %Inh: `CN1CCN(Cc2cccc(-c3ccc4c(Nc5ccc(Oc6ccccc6)cc5)ccnc4c3)c2)CC1`
0

Look up %Inh: `O=C(Nc1ccccc1F)NC1CCN(c2ccnc(Nc3ccc(F)cc3)n2)CC1`
12

Look up %Inh: NCCCC(NC(=O)c1cc(Br)c(-c2ccnc3[nH]ccc23)s1)c1ccccc1.O=C(O)C(F)(F)F.O=C(O)C(F)(F)F (centres unmarked)
15

Look up %Inh: `O=C(Nc1cccc(-c2nn3ccccc3c2-c2ccnc(Nc3cccc(C(F)(F)F)c3)n2)c1)c1c(F)cccc1F`
4

Look up %Inh: `COC(=O)Nc1nc2cc(Oc3ccc(NC(=O)Nc4cc(C(F)(F)F)ccc4F)cn3)ccc2[nH]1.Cl.Cl`
8

Look up %Inh: COc1cccc(NC(=O)NC2CCN(c3ccnc(Nc4cc(OC)c(OC)c(OC)c4)n3)C2)c1 (centres unmarked)
45

Look up %Inh: `CC(=O)N1CCN(c2ccc(Nc3nccc(-c4sc(C(C)C)nc4-c4cccc(NS(=O)(=O)c5cccc(Cl)c5)c4)n3)cn2)CC1`
10

Look up %Inh: `COCCOCCOc1cc2ncc3c4ccc(C#N)cc4[nH]c3c2cc1OC`
0

Look up %Inh: `CC(C)c1nc(-c2cccc(NS(=O)(=O)c3c(F)cccc3F)c2F)c(-c2ccnc(Nc3ccc(N4CCOCC4)nc3)n2)s1`
21

Look up %Inh: `Cc1ccc(S(=O)(=O)Nc2ccc(Nc3nccc(Nc4cccc5[nH]ncc45)n3)cc2)cc1`
10
